- System Name: insulin receptor isoform B (IR-B) (Homo sapiens, UniProt P06213)
- Sequence (P06213 28-758 limits assumed): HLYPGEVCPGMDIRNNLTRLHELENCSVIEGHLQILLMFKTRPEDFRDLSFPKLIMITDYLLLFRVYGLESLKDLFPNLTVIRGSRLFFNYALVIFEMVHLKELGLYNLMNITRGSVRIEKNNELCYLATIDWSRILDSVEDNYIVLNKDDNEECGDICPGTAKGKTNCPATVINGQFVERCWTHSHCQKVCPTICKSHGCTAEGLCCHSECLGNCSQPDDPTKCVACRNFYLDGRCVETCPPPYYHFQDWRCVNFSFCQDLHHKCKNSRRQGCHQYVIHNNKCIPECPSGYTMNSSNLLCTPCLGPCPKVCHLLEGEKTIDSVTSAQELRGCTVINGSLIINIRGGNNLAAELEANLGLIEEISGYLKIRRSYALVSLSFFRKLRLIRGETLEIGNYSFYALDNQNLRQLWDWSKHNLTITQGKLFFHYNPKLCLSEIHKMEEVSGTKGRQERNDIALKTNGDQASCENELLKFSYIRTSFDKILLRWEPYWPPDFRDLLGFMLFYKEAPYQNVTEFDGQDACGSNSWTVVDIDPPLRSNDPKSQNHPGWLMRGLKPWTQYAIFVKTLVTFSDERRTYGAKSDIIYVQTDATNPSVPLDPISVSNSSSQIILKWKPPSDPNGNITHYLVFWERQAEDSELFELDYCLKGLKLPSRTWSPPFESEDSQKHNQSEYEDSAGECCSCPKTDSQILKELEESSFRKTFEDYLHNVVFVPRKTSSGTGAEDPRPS
- Sequence (P06213 763-1382 limits assumed): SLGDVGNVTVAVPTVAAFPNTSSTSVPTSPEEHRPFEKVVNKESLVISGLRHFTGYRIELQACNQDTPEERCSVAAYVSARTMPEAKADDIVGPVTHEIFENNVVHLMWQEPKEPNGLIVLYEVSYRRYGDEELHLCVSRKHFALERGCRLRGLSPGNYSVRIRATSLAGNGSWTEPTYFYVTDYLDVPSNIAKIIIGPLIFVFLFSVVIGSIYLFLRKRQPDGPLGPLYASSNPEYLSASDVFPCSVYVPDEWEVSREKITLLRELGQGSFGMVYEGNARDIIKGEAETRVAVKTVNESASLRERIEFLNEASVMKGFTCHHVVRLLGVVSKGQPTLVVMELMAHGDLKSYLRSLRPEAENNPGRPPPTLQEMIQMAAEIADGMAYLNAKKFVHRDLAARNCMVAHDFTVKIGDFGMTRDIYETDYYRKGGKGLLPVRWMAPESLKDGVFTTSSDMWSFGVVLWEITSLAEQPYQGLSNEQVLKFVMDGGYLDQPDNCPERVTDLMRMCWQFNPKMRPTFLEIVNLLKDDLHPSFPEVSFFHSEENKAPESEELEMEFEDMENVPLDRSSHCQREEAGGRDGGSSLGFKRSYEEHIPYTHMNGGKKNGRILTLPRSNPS
- Assay Procedure: Insulin receptor autophosphorylation assay (In-Cell Western, CHO cells, Example 8B)
- Type: cell-based
- Parameters: expressed in transfected cells; host or cells: CHO cells
- Run Conditions: relative to human insulin
Binning of autophosphorylation activity into classes: bottom (below 0.06), middle (0.06 to below 0.2), top (0.2 or more)

INSERT INTO measurements (molecule, category_label) VALUES
  ('O=C(O)CCCCCCCCCCCCCOc1ccc(S(=O)(=O)Nc2ccc(C(=O)NCCOCCOCC(=O)NCCOCCOCC(=O)O)cn2)cc1', 'bottom'),
  ('O=C(O)CCCCCCCCCCCCCCCOc1ccc(S(=O)(=O)Nc2ccc(C(=O)NCCOCCOCC(=O)NCCOCCOCC(=O)O)cn2)cc1F', 'bottom'),
  ('O=C(O)CCCCCCCCCOc1ccc(S(=O)(=O)Nc2ccc(C(=O)NCCOCCOCC(=O)NCCOCCOCC(=O)O)cn2)cc1', 'top'),
  ('O=C(O)CCCCCCCCCCCCCc1cc(Oc2ccc(S(=O)(=O)Nc3ncc(C(=O)NCCOCCOCC(=O)NCCOCCOCC(=O)O)cn3)cc2)ccc1F', 'middle'),
  ('O=C(O)CCCCCCCCCc1ccc(OCc2ccc(S(=O)(=O)Nc3ccc(C(=O)NCCOCCOCC(=O)NCCOCCOCC(=O)O)cc3)cc2)cc1', 'top'),
  ('O=C(O)CCCCCCCCCCCc1cccc(S(=O)(=O)Nc2ccc(C(=O)NCCOCCOCC(=O)NCCOCCOCC(=O)O)cn2)c1', 'bottom'),
  ('O=C(O)CCCCCCCCCCCOc1ccc(CCc2ccc(S(=O)(=O)Nc3ccc(C(=O)NCCOCCOCC(=O)NCCOCCOCC(=O)O)cn3)cc2)cc1', 'bottom'),
  ('O=C(O)CCCCCCCCCCCCCc1ccc(S(=O)(=O)Nc2ccc(C(=O)NCCOCCOCC(=O)NCCOCCOCC(=O)O)cn2)cc1 [Binder 20]', 'top'),
  ('O=C(O)CCCCCCCCCCCCCCCCCc1ccc(S(=O)(=O)Nc2ccc(C(=O)NCCOCCOCC(=O)NCCOCCOCC(=O)O)cn2)cc1', 'middle'),
  ('O=C(O)CCCCCCCCCCCc1ccc(Oc2ccc(S(=O)(=O)Nc3ccc(C(=O)NCCOCCOCC(=O)NCCOCCOCC(=O)O)cn3)cc2)cc1', 'middle'),
  ('O=C(O)CCCCCCCCCCCOc1ccc(S(=O)(=O)Nc2ncc(C(=O)NCCOCCOCC(=O)NCCOCCOCC(=O)O)cn2)cc1', 'top'),
  ('O=C(O)CCCCCCCCCc1ccc(CCOc2ccc(S(=O)(=O)Nc3ccc(C(=O)NCCOCCOCC(=O)NCCOCCOCC(=O)O)cn3)cc2)cc1', 'middle');

====

Reported Percent remaining insulin analog, Cathepsin D (30 minutes) values for the following molecules.
- System Name: Cathepsin D (Homo sapiens)
- Sequence (P07339 65-412, species assumed): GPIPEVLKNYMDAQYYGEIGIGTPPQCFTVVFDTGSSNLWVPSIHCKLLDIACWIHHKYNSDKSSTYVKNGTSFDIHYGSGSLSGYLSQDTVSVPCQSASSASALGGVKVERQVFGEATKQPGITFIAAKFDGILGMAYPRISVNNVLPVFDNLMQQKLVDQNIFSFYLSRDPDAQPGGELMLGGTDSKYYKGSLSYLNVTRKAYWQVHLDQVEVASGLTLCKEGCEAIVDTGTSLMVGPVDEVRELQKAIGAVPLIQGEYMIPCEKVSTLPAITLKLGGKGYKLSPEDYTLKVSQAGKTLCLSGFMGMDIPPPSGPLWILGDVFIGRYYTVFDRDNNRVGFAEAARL
- Assay Procedure: In vitro proteolytic stability against cathepsin D (Example 9)
- Assay type: in vitro ADME
- Run Conditions: 37° C., 2 μM
Experimental Endpoint: Percent remaining insulin analog, Cathepsin D (30 minutes) (%)

INSERT INTO results (chem_smiles, reading_unit, measured_number) VALUES
  ('O=C(O)CCCCCCCCCCCCCCOc1ccc(S(=O)(=O)Nc2ccc(C(=O)NCCOCCOCC(=O)NCCOCCOCC(=O)O)cn2)cc1', '%', 52),
  ('O=C(O)CCCCCCCCCCCc1cc(Oc2ccc(S(=O)(=O)Nc3ccc(C(=O)NCCOCCOCC(=O)NCCOCCOCC(=O)O)cn3)cc2)ccc1F', '%', 59),
  ('O=C(O)CCCCCCCCCCCCCc1ccc(CCOc2ccc(S(=O)(=O)Nc3ncc(C(=O)NCCOCCOCC(=O)NCCOCCOCC(=O)O)cn3)cc2)cc1', '%', 43),
  ('O=C(O)CCCCCCCCCOc1ccc(S(=O)(=O)Nc2ccc(C(=O)NCCOCCOCC(=O)NCCOCCOCC(=O)O)cn2)cc1', '%', 0),
  ('O=C(O)CCCCCCCCCc1ccc(OCc2ccc(S(=O)(=O)Nc3ccc(C(=O)NCCOCCOCC(=O)NCCOCCOCC(=O)O)cc3)cc2)cc1', '%', 0),
  ('O=C(O)CCCCCCCCCCCCCc1cc(Oc2ccc(S(=O)(=O)Nc3ccc(C(=O)NCCOCCOCC(=O)NCCOCCOCC(=O)O)cn3)cc2)ccc1F', '%', 20),
  ('O=C(O)CCCCCCCCCCCCCCCOc1ccc(S(=O)(=O)Nc2ncc(C(=O)NCCOCCOCC(=O)NCCOCCOCC(=O)O)cn2)cc1F', '%', 62);

====

- System Name: insulin receptor isoform B (IR-B) (Homo sapiens, UniProt P06213)
- Assay Procedure: Insulin receptor autophosphorylation assay (In-Cell Western, CHO cells, Example 8B)
- Type: cell-based
- Design: expressed in transfected cells; host or cells: CHO cells
- Run Conditions: relative to human insulin
Reported autophosphorylation activity values for the following compounds.
Experimental Endpoint: autophosphorylation activity

INSERT INTO measurements (compound, measured_number) VALUES
  ('O=C(O)CCCCCCCCCCCCCOc1ccc(S(=O)(=O)Nc2ncc(C(=O)NCCOCCOCC(=O)NCCOCCOCC(=O)O)cn2)cc1', 0.02),
  ('O=C(O)CCCCCCCCCCCCCCCOc1ccc(S(=O)(=O)Nc2ccc(C(=O)NCCOCCOCC(=O)NCCOCCOCC(=O)O)cn2)c(Cl)c1Cl', 0.23),
  ('O=C(O)CCCCCCCCCCCOc1ccc(S(=O)(=O)Nc2ccc(C(=O)NCCOCCOCC(=O)NCCOCCOCC(=O)O)cn2)cc1', 0.18),
  ('O=C(O)CCCCCCCCCCCc1cc(Oc2ccc(S(=O)(=O)Nc3ccc(C(=O)NCCOCCOCC(=O)NCCOCCOCC(=O)O)cn3)cc2)ccc1F', 0.04),
  ('O=C(O)CCCCCCCCCCCc1cc(Oc2ccc(S(=O)(=O)Nc3ncc(C(=O)NCCOCCOCC(=O)NCCOCCOCC(=O)O)cn3)cc2)ccc1F', 0.11),
  ('O=C(O)CCCCCCCCCCCOc1ccc(CCc2ccc(S(=O)(=O)Nc3ncc(C(=O)NCCOCCOCC(=O)NCCOCCOCC(=O)O)cn3)cc2)cc1', 0.34),
  ('O=C(O)CCCCCCCCCCCCCCCOc1ccc(S(=O)(=O)Nc2ncc(C(=O)NCCOCCOCC(=O)NCCOCCOCC(=O)O)cn2)cc1F', 0.03),
  ('O=C(O)CCCCCCCCCCCCCc1ccc(CCOc2ccc(S(=O)(=O)Nc3ncc(C(=O)NCCOCCOCC(=O)NCCOCCOCC(=O)O)cn3)cc2)cc1', 0.06),
  ('O=C(O)CCCCCCCCCCCCCCCCCc1ccc(S(=O)(=O)Nc2ncc(C(=O)NCCOCCOCC(=O)NCCOCCOCC(=O)O)cn2)cc1', 0.4),
  ('O=C(O)CCCCCCCCCCCCCc1ccc(S(=O)(=O)Nc2ccc(C(=O)NCCOCCOCC(=O)NCCOCCOCC(=O)O)cn2)cc1 [Binder 30]', 0.01),
  ('O=C(O)CCCCCCCCCCCCCCc1cc(Oc2ccc(S(=O)(=O)Nc3ncc(C(=O)NCCOCCOCC(=O)NCCOCCOCC(=O)O)cn3)cc2)ccc1F', 0.1),
  ('O=C(O)CCCCCCCCCCCCCc1cc(Oc2ccc(S(=O)(=O)Nc3ccc(C(=O)NCCOCCOCC(=O)NCCOCCOCC(=O)O)cn3)cc2)ccc1F', 0.04),
  ('O=C(O)CCCCCCCCCCCCCCOc1ccc(S(=O)(=O)Nc2ccc(C(=O)NCCOCCOCC(=O)NCCOCCOCC(=O)O)cn2)cc1', 0.2),
  ('O=C(O)CCCCCCCCCCCCCCCc1cc(Oc2ccc(S(=O)(=O)Nc3ccc(C(=O)NCCOCCOCC(=O)NCCOCCOCC(=O)O)cn3)cc2)ccc1F', 0.37);

====

Reported Percent remaining insulin analog, Insulin degrading enzyme, IDE (30 minutes) values for the following compounds.
- System Name: Insulin degrading enzyme, IDE (Homo sapiens, UniProt P14735)
- Assay Procedure: In vitro proteolytic stability against insulin degrading enzyme (Example 9)
- Type: in vitro ADME
- Run Conditions: 37° C., 2 μM
Experimental Endpoint: Percent remaining insulin analog, Insulin degrading enzyme, IDE (30 minutes) (%)

INSERT INTO measurements (chem_smiles, reading_unit, measured_number) VALUES
  ('O=C(O)CCCCCCCCCCCCCCOc1ccc(S(=O)(=O)Nc2ccc(C(=O)NCCOCCOCC(=O)NCCOCCOCC(=O)O)cn2)cc1', '%', 2),
  ('O=C(O)CCCCCCCCCCCCCc1cc(Oc2ccc(S(=O)(=O)Nc3ccc(C(=O)NCCOCCOCC(=O)NCCOCCOCC(=O)O)cn3)cc2)ccc1F', '%', 77),
  ('O=C(O)CCCCCCCCCOc1ccc(S(=O)(=O)Nc2ccc(C(=O)NCCOCCOCC(=O)NCCOCCOCC(=O)O)cn2)cc1', '%', 98),
  ('O=C(O)CCCCCCCCCCCCCCCOc1ccc(S(=O)(=O)Nc2ncc(C(=O)NCCOCCOCC(=O)NCCOCCOCC(=O)O)cn2)cc1F', '%', 86),
  ('O=C(O)CCCCCCCCCCCCCc1ccc(CCOc2ccc(S(=O)(=O)Nc3ncc(C(=O)NCCOCCOCC(=O)NCCOCCOCC(=O)O)cn3)cc2)cc1', '%', 11),
  ('O=C(O)CCCCCCCCCCCOc1ccc(S(=O)(=O)Nc2ncc(C(=O)NCCOCCOCC(=O)NCCOCCOCC(=O)O)cn2)cc1', '%', 88),
  ('O=C(O)CCCCCCCCCCCc1cc(Oc2ccc(S(=O)(=O)Nc3ccc(C(=O)NCCOCCOCC(=O)NCCOCCOCC(=O)O)cn3)cc2)ccc1F', '%', 86),
  ('O=C(O)CCCCCCCCCc1ccc(OCc2ccc(S(=O)(=O)Nc3ccc(C(=O)NCCOCCOCC(=O)NCCOCCOCC(=O)O)cc3)cc2)cc1', '%', 81),
  ('O=C(O)CCCCCCCCCCCCCCCc1cc(Oc2ccc(S(=O)(=O)Nc3ccc(C(=O)NCCOCCOCC(=O)NCCOCCOCC(=O)O)cn3)cc2)ccc1F', '%', 80),
  ('O=C(O)CCCCCCCCCCCCCc1ccc(Oc2ccc(S(=O)(=O)Nc3ncc(C(=O)NCCOCCOCC(=O)NCCOCCOCC(=O)O)cn3)cc2)cc1', '%', 12);
